EXPERIMENTAL SYSTEM: G-protein coupled receptor 151 (Homo sapiens) (UniProt Q8TDV0)
Sequence (Q8TDV0 whole entry, looked up): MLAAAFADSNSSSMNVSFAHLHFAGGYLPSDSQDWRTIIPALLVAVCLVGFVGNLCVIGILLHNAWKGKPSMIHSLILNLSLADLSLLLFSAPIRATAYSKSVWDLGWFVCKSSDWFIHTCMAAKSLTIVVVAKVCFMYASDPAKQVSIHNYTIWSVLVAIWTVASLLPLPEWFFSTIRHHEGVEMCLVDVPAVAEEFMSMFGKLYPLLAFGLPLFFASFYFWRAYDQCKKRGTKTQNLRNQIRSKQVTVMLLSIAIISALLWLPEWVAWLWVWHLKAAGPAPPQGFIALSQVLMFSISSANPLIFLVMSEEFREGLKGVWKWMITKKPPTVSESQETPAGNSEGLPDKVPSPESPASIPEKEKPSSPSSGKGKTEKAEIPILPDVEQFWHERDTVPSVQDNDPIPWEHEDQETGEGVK
RUN DESCRIPTION: GPR151 agonism via beta-arrestin recruitment – cell-based, PathHunter beta-arrestin, luminescence, set 2, confirmation (AID 1508608);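 further: 0% = plate median of compound wells and 100% = EA reagent high control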
EXPERIMENTAL CONDITIONS: GPR151 PathHunter beta-arrestin cells, 90 min, at 11.2 µM, hits give high values, 100% = signal from added EA reagent
Out of some 2,300 compounds screened, about 20 (0.9%) were called active. The sample holds actives, similar compounds and a random draw of the others, so the mix is not that of the screen.
RECORDED ENDPOINT: activation (%)
Reply numerically in %, unit not repeated.

Cc1ccc(-c2cc(=O)c3cc(Cl)ccc3o2)cc1; -6.67
CCN(c1ccccc1)c1ncnc2c1cnn2-c1ccc(Cl)cc1; 5.9
CCCc1cc(=O)n2[nH]c(NCc3cccc(OC)c3)nc2n1; -0.18
Cc1ccccc1OCC(=O)Nc1ccc(N2C(=O)c3ccc([N+](=O)[O-])cc3C2=O)cc1; 6.85
COc1ccc(/C=C\C23N(Cc4ccccc4)C(=O)CN2c2ccccc2C3(C)C)cc1 (stereo unspecified); -0.33

Recorded activation for "CCc1c(C)nc2c(C(=O)NCCc3ccccc3)c[nH]n2c1=O" with G-protein coupled receptor 151 (Homo sapiens) (UniProt Q8TDV0), please? 1.59
